- System: Trichomonas vaginalis G3 trophozoites
- CONDITIONS: HTS single concentration, parasite screen 1 µg/mL, replicate 2
Starred links: 1 amine or outer side, 2 acyl side, 3 side chain; linkers in the order of their positions; H or OH if unused. Positions of bridges follow the written chain, without caps; N, C: chain ends. Non-standard residues stand in square brackets, D forms with d. Residues, ends and D or L forms follow the SMILES beside them. ξ: configuration not given here. *: point of attachment. pTerphenylCO(4''-OnC5H11) = CCCCCOc1ccc(-c2ccc(-c3ccc(C(=O)*)cc3)cc2)cc1; Ileψ(thiazoline)Cys = CC[C@H](C)[C@H](N)C1=N[C@H](C(=O)*)CS1; ξOrn(4,5-diOH) = O=C(C(CC(O)C(O)N[*:3])N[*:1])[*:2]; ξhTyr(βξ-OH,γξ-OH) = NC(C(=O)O)C(O)C(O)c1ccc(O)cc1; Aoe = N[C@@H](CCCCCC(=O)[C@@H]1CO1)C(=O)O; ξPro(3ξ-OH,4ξ-Me) = CC1CNC(C(=O)O)C1O; Hyp = O=C(O)[CH]1C[CH](O)CN1; dOrn = NCCC[C@@H](N)C(=O)O
RECORDED ENDPOINT: T.vaginalis_%inb_Rep2 (%)

- COC1=C(N)C(=O)c2nc(-c3nc(C(=O)O)c(C)c(-c4cccc(OC)c4O)c3N)ccc2C1=O: 92.91
- Cc1c2c(c(O)c3c(O)cccc13)C(=O)[C@]1(O)C(=O)C(C(N)=O)=C(O)[C@@H](N(C)C)[C@@H]1C2.Cl: 9.54
- CC(=O)OC[C@]12CCC(C)=C[C@H]1O[C@@H]1[C@H](O)[C@@H](O)[C@@]2(C)[C@]12CO2: 12.13
- COc1cc2c(c3oc(=O)c4c(c13)CCC4=O)[C@@H]1CCO[C@@H]1O2: 11.14
- O=C(N[C@H](COC(=O)[C@H](Cc1ccccc1)NC(=O)c1ccccc1)Cc1ccccc1)c1ccccc1: 15.04
- CN1C(=O)c2ccccc2-n2c(nc3ccccc3c2=O)C1=Cc1ccccc1: 13.67
- COC1=CC(C)=CC(C)C(O)C(C)CC(C)=CC=CC(OC)C(C(C)C(O)C(C)C(=O)C=CC(C)C(O)C(C)C)OC1=O (stereo not shown): 18.37
- CCCCCOc1ccc(-c2ccc(-c3ccc(C(=O)NC4CC(O)C(O)NC(=O)C5C(O)C(C)CN5C(=O)C(C(C)O)NC(=O)C(C(O)C(O)c5ccc(O)cc5)NC(=O)C5CC(O)CN5C(=O)C(C(C)O)NC4=O)cc3)cc2)cc1 (stereo not drawn) [BIA-A1423] ({pTerphenylCO(4''-OnC5H11)}-[ξOrn(4,5-diOH)]T[Hyp][ξhTyr(βξ-OH,γξ-OH)]T[ξPro(3ξ-OH,4ξ-Me)]; lactam 1-C; configuration not given here): 12.08
- CC(/C=C/[C@@]1(C)[C@H](C)CCC(=O)[C@@H]1C)=C\Cc1c(O)c(Cl)c(C)c(C=O)c1O: 18.08
- CC[C@H](C)[C@H](N)C1=N[C@H](C(=O)N[C@@H](CC(C)C)C(=O)N[C@H](CCC(=O)O)C(=O)N[C@H](C(=O)N[C@H]2CCCCNC(=O)[C@H](CC(N)=O)NC(=O)[C@@H](CC(=O)O)NC(=O)[C@H](Cc3cnc[nH]3)NC(=O)[C@@H](Cc3ccccc3)NC(=O)[C@H]([C@@H](C)CC)NC(=O)[C@@H](CCCN)NC2=O)[C@@H](C)CC)CS1 [BIA-B1784] ({Ileψ(thiazoline)Cys}-L[dE]IK[dOrn]I[dF]H[dD]N; lactam 4-C): 9.69
- COc1c(OC)c(-c2c[nH]c3ccccc23)c(OC)c(OC)c1-c1c[nH]c2ccccc12: 14.03
- COc1cc2c(c3oc(=O)c4c(c13)CCC4=O)[C@@H]1C=CO[C@@H]1O2: 5.64
- Cc1cc(O)cc2oc(=O)c3c(O)cc(O)cc3c12: 9.26
- CC(C)C[C@H](NC(=O)[C@@H](O)[C@H](N)Cc1ccccc1)C(=O)O: 15.84
- C[C@@H]1NC(=O)[C@H](CCCCCC(=O)[C@@H]2CO2)NC(=O)[C@H]2CCCN2C(=O)[C@H](Cc2ccccc2)NC1=O [BIA-A1402] (cyclo(AF[dP][Aoe])): 94.29
- O=c1cccc2n1C[C@H]1C[C@@H]2CN2CCCC[C@H]12: 14.14
- CN1C(=O)c2ccccc2-n2c(nc3ccccc3c2=O)C1Cc1ccccc1 (stereo not shown): 13.38
- CC1C=CC=CC=CC=CC=CC=CC=CC(OC2OC(C)C(O)C(N)C2O)CC2OC(O)(CC(O)CC(O)C(O)CCC(O)CC(O)CC(=O)OC(C)C(C)C1O)CC(O)C2C(=O)O (stereo not shown): 14.03
- C=C1C(=O)OC2C(=O)OC(CCCCCCCC)C12 (stereo not shown): 12.94
- CC[C@H](C)[C@H]1O[C@]2(C=C[C@@H]1C)C[C@@H]1C[C@@H](C/C=C(\C)[C@@H](O[C@H]3C[C@H](OC)[C@@H](O)[C@H](C)O3)[C@@H](C)/C=C/C=C3\CO[C@@H]4[C@H](O)C(C)=C[C@@H](C(=O)O1)[C@]34O)O2: 12.58
- O=C(O)c1nccc2c1[nH]c1ccccc12: 10.54
- CN1C(=O)c2ccccc2-n2c(nc3ccccc3c2=O)C12OC2c1ccccc1 (stereo not shown): 15.26
- CO[C@H]1/C=C\C=C(/C)C(=O)NC2=CC(=O)C(NCCN(C)C)=C(C[C@@H](C)C[C@H](OC)[C@H](O)[C@@H](C)/C=C(\C)[C@@H]1OC(N)=O)C2=O: 62.10
- CCC1OC(=O)C(C)C(OC2CC(C)(OC)C(O)C(C)O2)C(C)C(OC2OC(C)CC(N(C)C)C2O)C2(C)CC(C)C3(O2)OC1(C)C(O)C3C (stereo not shown): 13.67
- Cc1c2c(c(O)c3c(O)ccc(Cl)c13)C(=O)[C@]1(O)C(O)=C(C(N)=O)C(=O)[C@@H](N(C)C)[C@@H]1C2.Cl: 11.71

* * *

- System: Trichomonas vaginalis G3 trophozoites
- CONDITIONS: HTS single concentration, parasite screen 1 µg/mL, replicate 2
RECORDED ENDPOINT: T.vaginalis_%inb_Rep2 (%)

* CC(=O)OC[C@]12[C@H](O)C(=O)C(C)=C[C@H]1O[C@@H]1[C@H](O)C[C@@]2(C)[C@]12CO2 | 15.54
* C[C@@H](O)[C@H]1C(=O)N2C(C(=O)[O-])=C(SC3Cn4cnc[n+]4C3)[C@H](C)[C@H]12 (stereo partly shown) | 20.32
* O=[N+]([O-])c1ncc[nH]1 | 9.83
* CN[C@@H]1C[C@H]2O[C@@](C)([C@@H]1OC)n1c3ccccc3c3c4c(c5c6ccccc6n2c5c31)C(=O)NC4=O | 75.50

* * *

- Test system: Trichomonas vaginalis G3 trophozoites
- CONDITIONS: HTS, parasite screen at 1 µg/mL, replicate 2
Note to self: values exactly at 10% are MET. So T.vaginalis_%inb_Rep2 at or above 10% is MET, below is NOT MET.

- C=C(NC(=O)C(=C)NC(=O)c1ccc2c(n1)-c1coc(n1)C(=C)NC(=O)C(=C)NC(=O)c1nc(oc1C)C(=C)NC(=O)C(C(C)(C)O)NC(=O)C(=C)NC(=O)c1coc(n1)/C(=C/C)NC(=O)[C@H]([C@@H](C)O)NC(=O)c1csc-2n1)C(N)=O (stereo partly drawn): MET
- CS(=O)(=O)c1ccc([C@@H](O)[C@H](N)CF)cc1.Cl [Florfenicol amine HCl]: MET
- COc1cc([C@H]2[C@@]3(O)[C@H](O)[C@H]4C[C@]2(O)[C@](O)(C(=O)O4)[C@H]3C(=O)c2ccccc2)oc(=O)c1: MET
- CC[C@H]1OC(=O)[C@H](C)[C@@H](O[C@H]2C[C@@](C)(OC)[C@@H](O)[C@H](C)O2)[C@H](C)[C@@H](O[C@@H]2O[C@H](C)C[C@H](N(C)C)[C@H]2O)[C@](C)(O)C[C@@H](C)C(=O)[C@H](C)[C@@H](O)[C@H]1C: NOT MET
- COc1c2c(cc3c1c(=O)c1ccccc1n3C)OCO2: NOT MET

* * *

- Test system: Trichomonas vaginalis G3 trophozoites
- CONDITIONS: HTS, parasite screen at 1 µg/mL, replicate 1
Non-standard residues stand in square brackets, D forms with d. Residues, ends and D or L forms follow the SMILES beside them. GABA = NCCCC(=O)O
true if T.vaginalis_%inb_Rep1 is below 10%. false if not; exact matches included in false.

- CCC1OC(=O)CC(O)C(C)C(OC2OC(C)C(O)C(N(C)C)C2O)C(CCN2CC(C)CC(C)C2)CC(C)C(=O)C=CC(C)=CC1COC1OC(C)C(O)C(OC)C1OC.O=P(O)(O)O (stereo not drawn) [Tilmicosin phosphate]: true
- CCCC[C@@H](C)[C@@H](OC(=O)C[C@@H](CC(=O)O)C(=O)O)[C@H](C[C@@H](C)CCCCCC[C@@H](O)C[C@H](O)[C@H](C)N)OC(=O)C[C@@H](CC(=O)O)C(=O)O [Fumonisin B2]: false
- CC(C)[C@H]1NC(=O)[C@H](Cc2ccccc2)NC(=O)[C@@H](C(C)C)NC(=O)[C@@H](C)NC(=O)CCCNC(=O)[C@@H](Cc2c[nH]c3ccccc23)NC(=O)[C@@H](C)NC1=O [Unguisin A] (cyclo(F[dV][dA][dW][GABA][dA][dV])): true
- C/C=C(/C)c1cc(O)c(C)c2c1Oc1c(C)c(O)cc(/C(C)=C\C)c1C(=O)O2 [Folipastatin]: false
- COC1=C(OC)C(=O)C(C)=CC1=O [Fumigatin methylether]: false
- COC12c3c(C)cc(O)c4c(=O)occ(c34)C(=O)C1C13COC(=O)c4c(O)cc(C)c(c41)C(=O)C2C3OC(C)=O (stereo not drawn) [Duclauxin]: false
- CC(=O)OCc1c(O)c2c(c3c1OC(=O)c1c(C)cc(O)c(C=O)c1O3)C(O)OC2=O (stereo not drawn) [Galbinic acid]: false
- CC1=C[C@H](O/C=C2/C(=O)O[C@@H]3c4ccccc4C[C@H]23)OC1=O [GR24]: false
- Cc1cc(=O)c(O)cc2c1C[C@@H]1CC(C)(C)/C=C/C[C@@]3(C)Oc4cc(O)c(=O)cc(C)c4C[C@@H]3C[C@@H](O)[C@]1(C)O2 [Eupenifeldin]: false
- O=C(O)c1c(=O)cccc2ssc12 [tropodithietic acid, reference compound]: false
- COc1ccc2c3c([nH]c2c1)[C@H](C=C(C)C)N1C(=O)[C@@H]2CCCN2C(=O)[C@@H]1C3 [Fumitremorgin C]: false
- CC[C@H]1OC(=O)[C@H](C)[C@@H](O[C@H]2C[C@@](C)(OC)[C@@H](O)[C@H](C)O2)[C@H](C)[C@@H](O[C@@H]2O[C@H](C)C[C@H](N(C)C)[C@H]2O)[C@](C)(O)C[C@@H](C)C(=O)[C@H](C)[C@@H](O)[C@H]1C [Erythromycin B]: true
